- Assay Comment: clinical
- Assay type: in vivo
- Test Context: human, plasma, oral, 600 mg, tmax, Day 1, 600 mg (n = 7), single dose; median (range)
Outcome Measure: Tmax (min)
Give the quantity in min, number only.

Query CC(C)NC[C@@H](C(=O)N1CCN(c2ncnc3c2[C@H](C)C[C@H]3O)CC1)c1ccc(Cl)cc1 yields Tmax of 34.8

* * *

- Assay Comment: clinical
- Format: in vivo
- Test Context: human, plasma, oral, 100 mg, Cmax, Day 1, 100 mg (n = 3), single dose; geometric mean (%CV)
Outcome Measure: Cmax (ng/mL)
# output: bare number, implied unit ng/mL

Item: CC(C)NC[C@@H](C(=O)N1CCN(c2ncnc3c2[C@H](C)C[C@H]3O)CC1)c1ccc(Cl)cc1 | Cmax: 59.8

* * *

- Test system: cancer cell lines
- Assay Comment: Cell viability assay
- Assay type: cell-based
- Test Context: read-out: median IC50, cell viability, cells without PIK3CA alterations, n = 60
Outcome Measure: IC50
Please state the number and follow it with the unit.

Observed IC50, cancer cell lines, CC(C)NC[C@@H](C(=O)N1CCN(c2ncnc3c2[C@H](C)C[C@H]3O)CC1)c1ccc(Cl)cc1 : 10 µM

* * *

- Assay Comment: clinical
- Type: in vivo
- Test Context: human, plasma, oral, 600 mg
Outcome Measure: half-life (h)
Response body: numeric value in h, unit text excluded.

Record CC(C)NC[C@@H](C(=O)N1CCN(c2ncnc3c2[C@H](C)C[C@H]3O)CC1)c1ccc(Cl)cc1 . Reported half-life: 45.8

* * *

- Assay Comment: clinical
- Format: in vivo
- Test Context: human, plasma, oral, 100 mg
Outcome Measure: half-life (h)
Field: numeric (h). Do not append units.

Input CC(C)NC[C@@H](C(=O)N1CCN(c2ncnc3c2[C@H](C)C[C@H]3O)CC1)c1ccc(Cl)cc1 [Ipatasertib] . Output half-life: 31.9

* * *

- Assay Comment: clinical
- Assay type: in vivo
- Test Context: human, plasma, oral, 200 mg, tmax, Day 1, 200 mg (n = 3), single dose; median (range)
Outcome Measure: Tmax (h)
I only need the number, in h, no unit after it.

Sure, the documented Tmax for CC(C)NC[C@@H](C(=O)N1CCN(c2ncnc3c2[C@H](C)C[C@H]3O)CC1)c1ccc(Cl)cc1 is 3

* * *

- Assay Comment: clinical
- Format: in vivo
- Test Context: human, plasma, oral, 800 mg, tmax, Day 1, 800 mg (n = 7), single dose; median (range)
Outcome Measure: Tmax (h)
Write the value in h as a bare number.

Tmax reported for this compound CC(C)NC[C@@H](C(=O)N1CCN(c2ncnc3c2[C@H](C)C[C@H]3O)CC1)c1ccc(Cl)cc1 [Ipatasertib] : 2

* * *

- Assay Comment: clinical
- Format: in vivo
- Test Context: human, plasma, oral, 25 mg, tmax, Day 1, 25 mg (n = 3), single dose; median (range)
Outcome Measure: Tmax (min)
Your answer is read as min, so omit the unit and give the number.

# compound CC(C)NC[C@@H](C(=O)N1CCN(c2ncnc3c2[C@H](C)C[C@H]3O)CC1)c1ccc(Cl)cc1 ; its Tmax = 30

* * *

- Assay Comment: clinical
- Type: in vivo
- Test Context: human, plasma, oral, 800 mg
Outcome Measure: half-life (min)
Just the number please, in min, no unit attached.

Looking up CC(C)NC[C@@H](C(=O)N1CCN(c2ncnc3c2[C@H](C)C[C@H]3O)CC1)c1ccc(Cl)cc1 [Ipatasertib] , I found its half-life recorded as 2630

* * *

- Assay Comment: clinical
- Type: in vivo
- Test Context: human, plasma, oral, 600 mg, Cmax, Day 15, 600 mg (n = 7), steady state; geometric mean (%CV)
Outcome Measure: Cmax

Briefly, Cmax measured for CC(C)NC[C@@H](C(=O)N1CCN(c2ncnc3c2[C@H](C)C[C@H]3O)CC1)c1ccc(Cl)cc1 [Ipatasertib] : 748 ng/mL

* * *

- Assay Comment: clinical
- Assay type: in vivo
- Test Context: human, plasma, oral, 25 mg, AUC0–24,ss, Day 15, 25 mg (n = 3), steady state; geometric mean (%CV)
Outcome Measure: AUC(0-t) (ng·h/mL)
Number in ng·h/mL, nothing else.

// field: AUC(0-t); key: CC(C)NC[C@@H](C(=O)N1CCN(c2ncnc3c2[C@H](C)C[C@H]3O)CC1)c1ccc(Cl)cc1 [Ipatasertib] ; value = 88.3

* * *

- Assay Comment: clinical
- Format: in vivo
- Test Context: human, plasma, oral, 600 mg, tmax, Day 15, 600 mg (n = 7), steady state; median (range)
Outcome Measure: Tmax (min)
Reply numerically in min, unit not repeated.

For this compound ( CC(C)NC[C@@H](C(=O)N1CCN(c2ncnc3c2[C@H](C)C[C@H]3O)CC1)c1ccc(Cl)cc1 [Ipatasertib] ), measured Tmax is 49.8

* * *

- Assay Comment: clinical
- Format: in vivo
- Test Context: human, plasma, oral, 400 mg, Cmax, Day 15, 400 mg (n = 3), steady state; geometric mean (%CV)
Outcome Measure: Cmax (ng/mL)
Give your result in ng/mL as a bare value.

Notebook: CC(C)NC[C@@H](C(=O)N1CCN(c2ncnc3c2[C@H](C)C[C@H]3O)CC1)c1ccc(Cl)cc1 , Cmax read as 838

* * *

- Assay Comment: clinical
- Type: in vivo
- Test Context: human, plasma, oral, 800 mg, AUC0–24,ss, Day 15, 800 mg (n = 5), steady state; geometric mean (%CV)
Outcome Measure: AUC(0-t) (ng·h/mL)
# value in ng·h/mL; strip the unit string

AUC(0-t) in this record for CC(C)NC[C@@H](C(=O)N1CCN(c2ncnc3c2[C@H](C)C[C@H]3O)CC1)c1ccc(Cl)cc1 [Ipatasertib] : 6670

* * *

- Assay Comment: clinical
- Assay type: in vivo
- Test Context: human, plasma, oral, 400 mg, AUC0–24,ss, Day 15, 400 mg (n = 3), steady state; geometric mean (%CV)
Outcome Measure: AUC(0-t) (ng·h/mL)
Answer in ng·h/mL, number only, no unit symbol.

Quick note, AUC(0-t) for CC(C)NC[C@@H](C(=O)N1CCN(c2ncnc3c2[C@H](C)C[C@H]3O)CC1)c1ccc(Cl)cc1 landed at 3210

* * *

- Assay Comment: clinical
- Type: in vivo
- Test Context: human, plasma, oral, 200 mg, AUC0–24, Day 1, 200 mg (n = 3), single dose; geometric mean (%CV)
Outcome Measure: AUC(0-t) (ng·h/mL)
Reply numerically in ng·h/mL, unit not repeated.

Consider CC(C)NC[C@@H](C(=O)N1CCN(c2ncnc3c2[C@H](C)C[C@H]3O)CC1)c1ccc(Cl)cc1 [Ipatasertib] . Its measured AUC(0-t) is 726

* * *

- Assay Comment: clinical
- Assay type: in vivo
- Test Context: human, plasma, oral, 400 mg
Outcome Measure: half-life (h)
Quick reminder: number only, in h, skip the unit.

The compound listed as CC(C)NC[C@@H](C(=O)N1CCN(c2ncnc3c2[C@H](C)C[C@H]3O)CC1)c1ccc(Cl)cc1 has a reported half-life of 53

* * *

- Assay Comment: clinical
- Type: in vivo
- Test Context: human, plasma, oral, 200 mg, tmax, Day 15, 200 mg (n = 3), steady state; median (range)
Outcome Measure: Tmax
# output: number + unit

Kindly note the recorded Tmax for CC(C)NC[C@@H](C(=O)N1CCN(c2ncnc3c2[C@H](C)C[C@H]3O)CC1)c1ccc(Cl)cc1 , which is 1 h

* * *

- Tested on: cancer cell lines
- Assay Comment: Cell viability assay
- Type: cell-based
- Test Context: read-out: median IC50, cell viability, cells without PTEN alterations, n = 67
Outcome Measure: pIC50
# pIC50: negative log10 of molar concentration; output just the value

Consider CC(C)NC[C@@H](C(=O)N1CCN(c2ncnc3c2[C@H](C)C[C@H]3O)CC1)c1ccc(Cl)cc1 . Its measured pIC50 is 5.00

* * *

- Assay Comment: clinical
- Assay type: in vivo
- Test Context: human, plasma, oral, 100 mg, tmax, Day 15, 100 mg (n = 2), steady state; individual values
Outcome Measure: Tmax

Quick note, Tmax for CC(C)NC[C@@H](C(=O)N1CCN(c2ncnc3c2[C@H](C)C[C@H]3O)CC1)c1ccc(Cl)cc1 [Ipatasertib] landed at 30 to 40.2 min

* * *

- Assay Comment: clinical
- Type: in vivo
- Test Context: human, plasma, oral, 200 mg, AUC0–24,ss, Day 15, 200 mg (n = 3), steady state; geometric mean (%CV)
Outcome Measure: AUC(0-t)

CC(C)NC[C@@H](C(=O)N1CCN(c2ncnc3c2[C@H](C)C[C@H]3O)CC1)c1ccc(Cl)cc1 has a reported AUC(0-t) of 1770 ng·h/mL

* * *

- Assay Comment: clinical
- Assay type: in vivo
- Test Context: human, plasma, oral, 50 mg, AUC0–24, Day 1, 50 mg (n = 3), single dose; geometric mean (%CV)
Outcome Measure: AUC(0-t) (ng·h/mL)
Provide the reading as a plain figure in ng·h/mL.

Lab book: AUC(0-t) of CC(C)NC[C@@H](C(=O)N1CCN(c2ncnc3c2[C@H](C)C[C@H]3O)CC1)c1ccc(Cl)cc1 noted as 70.3
